# target or test system: BRAF^V600E protein (Homo sapiens, UniProt P15056, V600E)
# Sequence (P15056 whole entry V600E): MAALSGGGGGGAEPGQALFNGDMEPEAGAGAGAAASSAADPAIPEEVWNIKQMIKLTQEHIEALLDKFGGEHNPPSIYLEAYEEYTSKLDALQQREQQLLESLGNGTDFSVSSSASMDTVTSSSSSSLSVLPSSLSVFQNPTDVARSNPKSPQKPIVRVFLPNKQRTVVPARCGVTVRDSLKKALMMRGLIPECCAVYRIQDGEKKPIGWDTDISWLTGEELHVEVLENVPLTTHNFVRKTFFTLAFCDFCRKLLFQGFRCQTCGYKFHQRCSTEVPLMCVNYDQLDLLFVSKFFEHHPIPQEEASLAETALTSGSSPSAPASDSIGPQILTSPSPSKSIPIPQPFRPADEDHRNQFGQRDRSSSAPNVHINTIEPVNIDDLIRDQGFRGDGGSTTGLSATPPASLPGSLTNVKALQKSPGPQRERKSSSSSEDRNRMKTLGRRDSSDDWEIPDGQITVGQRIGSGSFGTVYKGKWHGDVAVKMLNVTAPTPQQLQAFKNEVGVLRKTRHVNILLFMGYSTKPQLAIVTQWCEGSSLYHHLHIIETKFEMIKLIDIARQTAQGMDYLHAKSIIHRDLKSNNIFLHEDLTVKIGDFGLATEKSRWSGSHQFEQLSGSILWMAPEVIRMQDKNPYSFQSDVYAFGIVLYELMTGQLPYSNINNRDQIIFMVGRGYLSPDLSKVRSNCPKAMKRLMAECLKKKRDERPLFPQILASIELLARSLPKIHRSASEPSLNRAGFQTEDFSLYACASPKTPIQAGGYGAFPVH
# method summary: HiBiT cellular BRAF V600E degradation assay
# Type: cell-based
# study conditions: A375.10 cells (HiBiT tag knocked in at N-terminal of BRAF V600E), 24 h incubation; concentration at which 50% of total cellular BRAF V600E is degraded
Simple rule here: DC50 less than 20 nM is True, otherwise False.

• CCN(C)S(=O)(=O)Nc1ccc(F)c(C(=O)c2c[nH]c3ncc(-c4ccc(N5CCN(C(=O)CC6(O)CCN(c7ccc(NC8CCC(=O)NC8=O)cc7F)CC6)CC5)nc4)cc23)c1F (centres unmarked) = True
• CCN(C)S(=O)(=O)Nc1ccc(F)c(C(=O)c2c[nH]c3ncc(-c4ccc(N5CCN(C(=O)CCCN6CCC(c7ccc(OC8CCC(=O)NC8=O)cc7)CC6)CC5)nc4)cc23)c1F (centres unmarked) = False
• [2H][C@@]1(c2ccc(N3CCC(O)(CC(=O)N4CCN(c5ncc(-c6cnc7[nH]cc(C(=O)c8c(F)ccc(NS(=O)(=O)N(C)CC)c8F)c7c6)cn5)CC4)CC3)c(F)c2)CCC(=O)NC1=O (single isomer, unassigned) [Example 158c] = True
• CCN(C)S(=O)(=O)Nc1ccc(F)c(C(=O)c2c[nH]c3ncc(-c4cnc(N5CCN(C(=O)CC6CCC(c7ccc(NC8CCC(=O)NC8=O)cc7)CC6)CC5)nc4)cc23)c1F (single isomer, unassigned) [Example 36] = False
• CCN(C)S(=O)(=O)Nc1ccc(F)c(C(=O)c2c[nH]c3ncc(-c4ccc(N5CCN(C(=O)CC6(O)CCN(c7cc(F)c(N8CCC(=O)NC8=O)cc7F)CC6)CC5)nc4)cc23)c1F = True
